System: Respiratory syncytial virus (RSV) strain A2
Test: RSV antiviral assay (HEp-2, 96 well)
Type: cell-based
Settings: read-out: EC50 RSV HEP2 96; HEp-2 cells, RSV A2, MOI=4, 4 days, 96 well; Table 3
quantity: pEC50
Please report pEC50 as the negative decimal logarithm of the molar concentration, giving only the number.

Reference set (3 entries):
{"molecule": "C[C@H](NP(=O)(OC[C@H]1O[C@@](C#N)(c2ccc3c(N)ncnn23)[C@H](O)[C@@H]1O)Oc1ccc(C(C)(C)C)cc1)C(=O)O[C@H]1CC[C@H](C(F)(F)F)CC1 (single isomer, unassigned) [Example 84b]", "test_system": "Respiratory syncytial virus (RSV) strain A2", "pEC50": 6.73}
{"molecule": "CC(C)C(=O)O[C@H]1[C@@H](OC(=O)C(C)C)[C@](C#N)(c2ccc3c(N)ncnn23)O[C@@H]1COP(=O)(N[C@@H](C)C(=O)OC1CCC1)Oc1ccc(C(C)(C)C)cc1 (single isomer, unassigned) [Example 50a]", "test_system": "Respiratory syncytial virus (RSV) strain A2", "pEC50": 7.67}
{"molecule": "CCOC(=O)[C@H](C)NP(=O)(OC[C@H]1O[C@@](C#N)(c2ccc3c(N)ncnn23)[C@H](O)[C@@H]1O)Oc1ccc(C(C)C)cc1 (stereo partly shown) [Example 63b]", "test_system": "Respiratory syncytial virus (RSV) strain A2", "pEC50": 7.01}

I looked up CCC(CC)COC(=O)[C@H](C)NP(=O)(OC[C@H]1O[C@@](C#N)(c2ccc3c(N)ncnn23)[C@H](OC(C)=O)[C@@H]1OC(C)=O)Oc1cccc2ccccc12 (single isomer, unassigned) [Example 78b] and its pEC50 for Respiratory syncytial virus (RSV) strain A2 was 7.68

I looked up CC(C)C(=O)O[C@H]1[C@@H](OC(=O)C(C)C)[C@](C#N)(c2ccc3c(N)ncnn23)O[C@@H]1COP(=O)(N[C@@H](C)C(=O)OC1CC2(CCC2)C1)Oc1cccc2ccccc12 (single isomer, unassigned) [Example 86b] and its pEC50 for Respiratory syncytial virus (RSV) strain A2 was 7.68

I looked up C[C@H](NP(=O)(OC[C@H]1O[C@@](C#N)(c2ccc3c(N)ncnn23)[C@H](O)[C@@H]1O)Oc1ccc(C2CC2)cc1)C(=O)OC1CCC1 (stereo partly shown) [Example 51b] and its pEC50 for Respiratory syncytial virus (RSV) strain A2 was 7.06

I looked up CC(=O)O[C@H]1[C@@H](OC(C)=O)[C@](C#N)(c2ccc3c(N)ncnn23)O[C@@H]1COP(=O)(N[C@@H](C)C(=O)OC1CC2(CCC2)C1)Oc1cccc2ccccc12 (single isomer, unassigned) [Example 83a] and its pEC50 for Respiratory syncytial virus (RSV) strain A2 was 7.66

I looked up CCC(CC)COC(=O)[C@H](C)NP(=O)(OC[C@H]1O[C@@](C#N)(c2ccc3c(N)ncnn23)[C@H](O)[C@@H]1O)Oc1ccc2ccccc2c1 (single isomer, unassigned) [Intermediate S3-b] and its pEC50 for Respiratory syncytial virus (RSV) strain A2 was 7.73

I looked up CCC(=O)O[C@H]1[C@@H](OC(=O)CC)[C@](C#N)(c2ccc3c(N)ncnn23)O[C@@H]1COP(=O)(N[C@@H](C)C(=O)OCC(CC)CC)Oc1cccc2ccccc12 (single isomer, unassigned) [Example 79b] and its pEC50 for Respiratory syncytial virus (RSV) strain A2 was 7.66

I looked up CCC(=O)O[C@H]1[C@@H](OC(=O)CC)[C@](C#N)(c2ccc3c(N)ncnn23)O[C@@H]1COP(=O)(N[C@@H](C)C(=O)OCC(CC)CC)Oc1cccc2ccccc12 (single isomer, unassigned) [Example 79a] and its pEC50 for Respiratory syncytial virus (RSV) strain A2 was 7.21

I looked up C[C@H](NP(=O)(OC[C@H]1O[C@@](C#N)(c2ccc3c(N)ncnn23)[C@H](O)[C@@H]1O)Oc1cccc2ccccc12)C(=O)OC1CCC1 (single isomer, unassigned) [Intermediate P7a-2] and its pEC50 for Respiratory syncytial virus (RSV) strain A2 was 7.19
